- Protocol Details: Binding affinity at human GABAA alpha-4-beta-3-delta expressed in Xenopus oocytes by voltage-clamp electrophysiology
- Assay type: functional, cell-based
- Reported Conditions: oocyte
Property Name: pKi
Note on pKi: it is the negative log10 of concentration, concentration in mol/L.

>>> print(df.to_string())
                             sample_smiles  property_name  test_result
0  Oc1noc(C2CCNCC2)c1CCC(c1ccccc1)c1ccccc1            pKi         8.64

Attention now shifts to the item below.
Query: Need pKi of `Oc1nsc(C2CCNCC2)c1CCC(c1ccccc1)c1ccccc1` , thanks.
Result: 9.46
